Cited source: patent US20190071480A1

- Assay System: T1, extracellular domain of activin receptor type IIB (ActRIIBecd), biotinylated (Homo sapiens (Human), UniProt Q13705 27-117, amino-biotinylated with amine-PEG3-Biotin)
- T1 construct: immobilised on a streptavidin-coated sensor chip; also called biotinylated ActRIIBecd; extracellular domain of ActRIIB
- T1 sequence: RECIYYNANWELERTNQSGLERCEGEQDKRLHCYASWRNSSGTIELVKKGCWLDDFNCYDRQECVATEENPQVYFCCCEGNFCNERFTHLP
- Assay Text: BIAcore SPR, biotinylated ActRIIBecd on chip; SD ±17.89 nM

Binder: VDFSDVGWNDWIVAPPGYHAFYCHGECPFPLADHLNSDNHAIVQTLVNSV [Clone No. 17 domain (ActRIIBecd-associated polypeptide)]
Readout Unit: nM
Kd: 67.4
